- TARGET_SYSTEM: T1, PCSK9Δhelix (human, Chemically biotinylated in the phage ELISAs; the site is not given.)
- T1 construct: construct M1-Q692 with engineered TEV site, cleaved by TEV; also called His-PCSK9Δhelix; open groove PCSK9Δhelix
- T1 sequence (prodomain, as listed by the source mutant limits assumed, chain 1 of 2): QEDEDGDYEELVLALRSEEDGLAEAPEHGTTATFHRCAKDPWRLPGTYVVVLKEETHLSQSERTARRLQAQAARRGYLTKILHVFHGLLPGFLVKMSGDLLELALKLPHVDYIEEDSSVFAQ
- T1 sequence (chain, as listed by the source mutant limits assumed, chain 2 of 2): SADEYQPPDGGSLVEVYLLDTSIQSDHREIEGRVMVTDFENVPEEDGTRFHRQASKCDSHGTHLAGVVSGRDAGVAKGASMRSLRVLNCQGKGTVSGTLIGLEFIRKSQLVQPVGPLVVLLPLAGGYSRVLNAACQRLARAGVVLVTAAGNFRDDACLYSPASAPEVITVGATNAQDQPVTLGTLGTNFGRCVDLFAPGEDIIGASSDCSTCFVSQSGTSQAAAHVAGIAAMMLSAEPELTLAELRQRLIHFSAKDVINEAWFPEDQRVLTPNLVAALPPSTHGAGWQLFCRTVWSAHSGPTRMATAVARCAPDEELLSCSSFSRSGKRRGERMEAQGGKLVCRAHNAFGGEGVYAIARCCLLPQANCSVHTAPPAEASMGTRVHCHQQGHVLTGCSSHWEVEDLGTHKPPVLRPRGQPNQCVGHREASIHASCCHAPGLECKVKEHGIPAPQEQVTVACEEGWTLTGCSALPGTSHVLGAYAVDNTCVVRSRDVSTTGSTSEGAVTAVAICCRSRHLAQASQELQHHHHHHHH
- ASSAY_EXPLANATION: phage spot ELISA
Threshold check on ELISA: strictly below 0.6 is YES; on or above 0.6 is NO.

SGCWTYLRGGCSVT [SEQ ID NO 373]; YES

Moving on to the next binder.
Lab note: confirm whether the reported ELISA for this binder is below 0.6, equality not counting. binder: SGGSIPWNLERITPPR [SEQ ID NO 382]
NO
